- Tested on: TAZ nuclear translocation in SW1990 cells
- assay-comment: TAZ Nuclear Translocation Assay
- Type: cell-based
- details: Homo sapiens, 4 hours
pEC50: −log10 of the molar value.
readout-label: pEC50

OC1(CN2CCC3(CCN(c4nc(-c5ccncc5)nc5cnccc45)CC3)C2)COC1 :: 6.38
CN1CCC2(CCN(c3nc(-c4ccncc4)nc4cnc(Cn5cc(Cl)cn5)cc34)CC2)C1 :: 6.27
FC(F)CN1CCC2(CCN(c3nc(-c4ccncc4)nc4cnccc34)CC2)C1 :: 5.89
c1cc(-c2nc(N3CCC4(CC3)CCN(C3CCOC3)C4)c3ccncc3n2)ccn1 (racemic) :: 6.20

I: OCCN1CCC2(CCN(c3nc(-c4ccncc4)nc4cnccc34)CC2)C1
II: O=C1NCCC12CCN(c1nc(-c3ccncc3)nc3cnccc13)CC2
III: O[C@H]1CC[C@H]1N1CCC2(CCN(c3nc(-c4ccncc4)nc4cnccc34)CC2)C1 (single isomer, unassigned)
IV: OCCCN1CCC2(CCN(c3nc(-c4ccncc4)nc4cnccc34)CC2)C1
V: Cc1n[nH]cc1-c1nc(N2CCC3(CCN(C)C3)CC2)c2cc(Cc3ccncc3)ncc2n1
**Query** Highest pEC50 first, then in falling order down to the smallest. Returns: the labels arranged in the requested order.
**Result** IV, I, V, III, II

----------
A collection of compounds and their measured pEC50
- Test system: TAZ nuclear translocation in SW1990 cells
- assay-comment: TAZ Nuclear Translocation Assay
- Type: cell-based
- details: Homo sapiens, 4 hours
pEC50: −log10 of the molar value.

[O-][n+]1ccc(-c2nc(N3CCC4(CCNC4)CC3)c3ccncc3n2)cc1 [Compound 251] :: < 5.00
Cc1n[nH]c(C)c1-c1nc(N2CCC3(CCNC3)CC2)c2ccncc2n1 [Compound 241] :: < 5.00

Please turn your attention to the following entry.
**Query** Quick one: pEC50 for OC1CNCC12CCN(c1nc(-c3ccncc3)nc3cnccc13)CC2 (stereo not drawn) [Compound 187] ?
**Result** < 5.00

----------
- target-under-test: Human LATS2 catalytic domain (Homo sapiens (Human), UniProt Q9NRM7)
- Sequence (Q9NRM7 553-1088): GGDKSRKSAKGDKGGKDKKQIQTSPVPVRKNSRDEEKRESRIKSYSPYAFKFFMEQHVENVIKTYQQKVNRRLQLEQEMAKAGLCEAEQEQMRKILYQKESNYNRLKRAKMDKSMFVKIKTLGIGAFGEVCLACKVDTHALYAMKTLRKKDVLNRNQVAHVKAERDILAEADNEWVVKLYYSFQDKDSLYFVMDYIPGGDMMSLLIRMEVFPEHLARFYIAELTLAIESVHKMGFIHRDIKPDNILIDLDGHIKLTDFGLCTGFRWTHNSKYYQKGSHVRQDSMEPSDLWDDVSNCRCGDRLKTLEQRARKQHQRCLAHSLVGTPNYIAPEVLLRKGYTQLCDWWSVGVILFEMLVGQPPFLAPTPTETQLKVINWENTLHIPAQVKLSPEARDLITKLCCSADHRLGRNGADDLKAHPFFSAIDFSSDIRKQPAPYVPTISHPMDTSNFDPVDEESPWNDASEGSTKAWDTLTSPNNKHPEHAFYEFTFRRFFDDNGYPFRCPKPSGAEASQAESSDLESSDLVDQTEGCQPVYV
- Sequence (Q7L9L4 whole entry partner, the tested form may be a part): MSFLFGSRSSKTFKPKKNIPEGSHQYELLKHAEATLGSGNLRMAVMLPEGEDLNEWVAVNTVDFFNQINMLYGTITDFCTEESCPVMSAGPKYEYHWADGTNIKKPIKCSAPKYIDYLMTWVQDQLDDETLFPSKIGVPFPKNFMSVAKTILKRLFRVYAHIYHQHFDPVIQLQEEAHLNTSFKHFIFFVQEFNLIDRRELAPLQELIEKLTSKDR
- assay-comment: LATS2 High ATP HTRF Assay
- Type: biochemical
- details: no asterisk: LATS2 High ATP HTRF Assay, 5000 μM ATP, 0.05 nM LATS2
readout-label: Ki (nM)

CN1CCC2(CCN(c3nc(-c4ccncc4)nc4cnccc34)CC2)C1 [Compound 102] :: 0.98

1: OC[C@@H]1CC2(CCN(c3nc(-c4ccncc4)nc4cnccc34)CC2)CN1 (single isomer, unassigned) [Compound 197]
2: CCc1cncc2nc(-c3ccncc3)nc(N3CCC4(CCNC4)CC3)c12 [Example 204]
**Query** For the pair 1 and 2 , which entry has the numerically smaller recorded Ki? Your choice should be expressed through its label.
**Result** 1
(1: 0.059 nM, 2: 1.1 nM)

a: c1cc(-c2nc(N3CCC4(CCN(CC5COC5)C4)CC3)c3ccncc3n2)ccn1 [Compound 124]
b: CS(=O)(=O)NCC1CC2(CCN(c3nc(-c4ccncc4)nc4cnccc34)CC2)CN1 (centres unmarked) [Example 224]
**Query** Return label of the item with the larger Ki. Candidates: a , b . To answer, give the label that identifies your chosen option.
**Result** b
(b: 0.16 nM, a: 0.083 nM)
